GI50 values by entry
- System: A549
- measurement-description: NCI tumour cell line growth inhibition, 48 h
Activity calls are given as the source filed them. Cut-off read from the data, not from the text of the source: active = GI50 up to about 1.1 µM and inactive = higher.
metric: GI50

molecule | system-name | metric | result
C=C(C)C1(Sc2ccc(OC)cc2)CC1 | A549 | GI50 | 30.8 µM (inactive)
CC(=O)N1N=C(c2ccc3ccccc3c2O)CC1c1ccc(N(C)C)cc1 (stereo not drawn) | A549 | GI50 | > 100 µM (inactive)
CC1(C)C(=O)/C(=C/c2ccccc2)C(C)(C)C1(C)C | A549 | GI50 | 57.5 µM (inactive)
COc1ccc(-c2cc(-c3ccc(Nc4ccnc5cc(C(F)(F)F)ccc45)cc3)[nH]c(=O)c2C#N)c2ccccc12 | A549 | GI50 | > 100 µM (inactive)
O=C1c2c(nc3ccccc3c2-c2ccccc2)CN1Nc1ccccc1 | A549 | GI50 | > 100 µM (inactive)
C[C@H]1[C@H](C)CC[C@]2(C)CC[C@]3(C)C(=C[C@@H](O)[C@@H]4[C@@]5(C)[C@H](O)[C@@H](O)[C@H](O)C(C)(C)[C@@H]5CC[C@]43C)[C@H]12 | A549 | GI50 | > 100 µM (inactive)
CC1=C(C(=O)Nc2ccc(C)cc2)C(c2cccc([N+](=O)[O-])c2)C(C(=O)Nc2ccc(C)cc2)=C(C)N1 | A549 | GI50 | 26.2 µM (inactive)
NC(=O)C(=O)CC(=O)c1ccccc1NC1=CC(=O)C(=O)c2ccccc21 | A549 | GI50 | > 100 µM (inactive)
CC(C)=CC1C(COC(=O)c2ccccc2Cl)C1(C)C (stereo not drawn) | A549 | GI50 | 36.9 µM (inactive)
CN(C)C1(N(C)C)Oc2c(c(=O)n(C)c(=O)n2C)C(c2ccccc2Br)C1(F)F (stereo not drawn) | A549 | GI50 | > 100 µM (inactive)
O=C1Nc2ccccc2Nc2nc3cccccc-3c21 | A549 | GI50 | > 100 µM (inactive)
COc1cc(C(c2ccc3c(c2)OCO3)C2SCCCS2)cc(OC)c1OC (stereo not drawn) | A549 | GI50 | 4.22 µM (inactive)
COc1ccc(Oc2cnn(C(Br)(Br)C(C)=O)c(=O)c2Br)cc1 | A549 | GI50 | 24 µM (inactive)
CN(C)/C=N/NC(=O)/C(C#N)=C/N(C)C | A549 | GI50 | > 100 µM (inactive)
CCCCCCc1cc(C(=O)Nc2cccc(C(F)(F)F)c2)nc(N)n1 | A549 | GI50 | > 100 µM (inactive)
Cc1ccc(O)c(-c2cc(-c3ccccc3)nc(/N=C\c3ccccc3)n2)c1 | A549 | GI50 | 23.1 µM (inactive)
COc1ccc(C2OC(=O)c3ccc4ccccc4c32)c(C)c1 (stereo not drawn) | A549 | GI50 | 6.31 µM (inactive)
COC(=O)CN(CC1O[C@@H]2OC(C)(C)O[C@@H]2C1N=[N+]=[N-])C(=O)OCc1ccccc1 (stereo partly drawn) | A549 | GI50 | > 100 µM (inactive)

---

- Test system: NCI-H522
- measurement-description: NCI tumour cell line growth inhibition, 48 h
Active and inactive are the calls of the source. Cut-off read from the data, not from the text of the source: active = GI50 up to about 1.1 µM and inactive = higher.
GI50 values by entry
metric: GI50

compound | result
C/C=C/C/C=C/CCC(=O)C1OC1C(N)=O (stereo unspecified) | 12.4 µM (inactive)
CCOC(=O)/C=C1\Nc2ccccc2C12CCc1c([nH]c3ccccc13)C2C(=O)OCC (stereo unspecified) | 21.5 µM (inactive)
Cc1cc(N(CCC#N)CCC#N)ccc1/N=N/c1ccccc1[N+](=O)[O-] | > 100 µM (inactive)
O=S(O)CCCCCSSc1ccccc1 | 15.3 µM (inactive)
Cc1ccc2c(c1C)CC1(Cc3ccc(C)c(C)c3C1=O)C2=O (stereo unspecified) | > 100 µM (inactive)
CC12CCC(=O)C=C1CCC1C2CCC2(C)C(C(=O)Cn3cnc4c(=S)nc[nH]c43)CCC12 (stereo unspecified) | 23.4 µM (inactive)
